Test system: U2932 TK216-resistant clone 2
Experiment: cell proliferation relative to vehicle (% of vehicle); higher = less growth inhibition
Settings: 500 nM; 72 h
Structures can show the parent of a compound that is named as a salt.

| compound | cell proliferation |
| --- | --- |
| COc1cc(Nc2ncc(F)c(Nc3ccc4c(n3)NC(=O)C(C)(C)O4)n2)cc(OC)c1OC [R406 (free base)] | 87.2 |
| c1ccc(Cn2c(-c3ccc(OC[C@H](C4CCNCC4)n4c(-c5ccccc5)nc5ccccc54)cc3)nc3ccccc32)cc1 [Deltarasin] | 88 |
| C[C@]12CCC(=O)C=C1CC[C@@H]1[C@@H]2[C@@H](O)C[C@@]2(C)[C@H]1CC[C@]2(O)C(=O)CO [Hydrocortisone] | 81.2 |
| CO[C@@H](C(=O)N1Cc2[nH]nc(NC(=O)c3ccc(N4CCN(C)CC4)cc3)c2C1)c1ccccc1 | 84 |
| CC(C)CCN1c2nc(Nc3cc(F)c(O)c(F)c3)ncc2N(C)C(=O)C1C (configuration not stated) | 99.9 |
| C[C@@H](N)[C@H]1CC[C@H](C(=O)Nc2ccncc2)CC1 | 102 |
| O=C(CCCCCCC(=O)Nc1ccccc1)NO [Vorinostat (SAHA, MK0683)] | 91.3 |
| CC(C)NCCCn1c(Sc2cc3c(cc2I)OCO3)nc2c(N)ncnc21 | 6.42 |
| Nc1nc(F)nc2c1ncn2[C@@H]1O[C@H](COP(=O)(O)O)[C@@H](O)[C@@H]1O [Fludarabine Phosphate] | 110 |
| O=C(O)CCNc1cc(N2CCc3ccccc3CC2)nc(-c2ccccn2)n1 | 100 |
| CCCCNc1ncc2c(-c3ccc(CN4CCN(C)CC4)cc3)cn([C@H]3CC[C@H](O)CC3)c2n1 | 71.1 |
| FC(F)(F)c1ccc(/C=C/c2nc(COc3ccc(CCCCn4ccnn4)cc3)co2)cc1 [Mubritinib (TAK 165)] | 61 |
| Nc1cc(C(F)(F)F)c(-c2cc(N3CCOCC3)nc(N3CCOCC3)n2)cn1 [BKM120 (NVP-BKM120, Buparlisib)] | 77.9 |
| CCCC(CCC)C(=O)O [Valproic acid sodium salt (Sodium valproate)] | 101 |
| NCC(=O)Nc1ccc(-n2nc(C(F)(F)F)cc2-c2ccc3c(ccc4ccccc43)c2)cc1 | 84.6 |
| COc1ccccc1OCC(O)CN1CCN(CC(=O)Nc2c(C)cccc2C)CC1 (configuration not stated) [Ranolazine] | 91.3 |
| COc1ccc2c(Oc3ccc(NC(=O)c4c(C)n(CC(C)(C)O)n(-c5ccccc5)c4=O)nc3)ccnc2c1 | 103 |

---

Reported values of cell proliferation for individual entries
Test system: U2932 parental
Assay: cell proliferation relative to vehicle (% of vehicle); higher = less growth inhibition
Conditions: 50 nM; 72 h
Where a name gives a salt, the structure may show the parent alone.

| compound | cell proliferation |
| --- | --- |
| OCCn1cc(-c2cnc3nnn(Cc4ccc5ncccc5c4)c3n2)cn1 | 99.4 |
| COc1cc([C@@H]2c3cc4c(cc3[C@@H](O[C@@H]3O[C@@H]5CO[C@@H](c6cccs6)O[C@H]5[C@H](O)[C@H]3O)[C@H]3COC(=O)[C@H]23)OCO4)cc(OC)c1O [Teniposide] | 67.7 |
| O=C1c2c(O)ccc(O)c2C(=O)c2c(NCCNCCO)ccc(NCCNCCO)c21 [Mitoxantrone HCl] | 16.4 |
| COc1ccc(-n2c(SCCCN3C(=O)c4cccc5cccc(c45)C3=O)nnc2-c2ccncc2)cc1 | 94.3 |
| O=c1cc(-c2cccc3c2Sc2ccccc2S3)oc(N2CCOCC2)c1 | 102 |
| N#Cc1c(Oc2ccc(F)c(NC(=O)Cc3cccc(C(F)(F)F)c3)c2)ccc2nc(NC(=O)C3CC3)sc12 | 95.9 |
| Cc1ccc(Nc2nccc(N(C)c3ccc4c(C)n(C)nc4c3)n2)cc1S(N)(=O)=O [Pazopanib HCl] | 95.2 |
| O=c1[nH]nc(Sc2ncc([N+](=O)[O-])s2)n1-c1ccc2c(c1)OCCO2 | 100 |
| CN[C@@H](C)C(=O)N[C@H]1CN(C(=O)CC(C)C)CC[C@H]2CC[C@@H](C(=O)NC(c3ccccc3)c3ccccc3)N2C1=O | 94 |
| Cn1c(Nc2ccc(C(F)(F)F)cc2)nc2cc(Oc3ccnc(-c4ncc(C(F)(F)F)[nH]4)c3)ccc21 | 95.6 |
| COc1cc(Nc2nc3ccccc3nc2NS(=O)(=O)c2ccc(NC(=O)c3ccc(C)c(OC)c3)cc2)cc(OC)c1 | 105 |
| COc1ccc(-c2ccc3ncc4c(c3c2)n(-c2ccc(N3CCNCC3)c(C(F)(F)F)c2)c(=O)n4C)cn1 | 19.7 |
| O=C(NOC[C@H](O)CO)c1ccc(F)c(F)c1Nc1ccc(I)cc1F | 92.3 |
| Cc1nc(-c2ccc(OCC(C)C)c(C#N)c2)sc1C(=O)O [Febuxostat] | 102 |
| Cc1csc(-c2nnc(Nc3ccc(Oc4ncccc4-c4ccnc(N)n4)cc3)c3ccccc23)c1 | 66.9 |
| C[C@]12CC[C@@H]3c4ccc(O)cc4C[C@@H](CCCCCCCCC[S+]([O-])CCCC(F)(F)C(F)(F)F)[C@H]3[C@@H]1CC[C@@H]2O (stereo partly drawn) [Fulvestrant] | 98.8 |
| S=C(NCc1ccc2c(c1)OCO2)N1CCN(c2ncnc3c2oc2ccccc23)CC1 [Amuvatinib (MP-470)] | 100 |
| COc1ccc(S(=O)(=O)N(CCO)c2ccccc2CN(C)C/C=C/c2ccc(Cl)cc2)cc1 [KN-93 Phosphate] | 102 |
| CO[C@@]12[C@H](COC(N)=O)C3=C(C(=O)C(C)=C(N)C3=O)N1C[C@@H]1N[C@@H]12 [Mitomycin C] | 91.3 |
| COc1ccc(C2=N[C@@H](c3ccc(Cl)cc3)[C@@H](c3ccc(Cl)cc3)N2C(=O)N2CCNC(=O)C2)c(OC(C)C)c1 [Nutlin-3a] | 104 |
| O=c1[nH]cc(F)c(=O)[nH]1 [Fluorouracil (5-Fluoracil, 5-FU)] | 102 |
| CO[C@@H](C(=O)N1Cc2[nH]nc(NC(=O)c3ccc(N4CCN(C)CC4)cc3)c2C1)c1ccccc1 | 71.8 |
| C[C@@H]1CCN(C(=O)CC#N)C[C@@H]1N(C)c1ncnc2[nH]ccc12 | 109 |
| CNC(=O)c1cc(Oc2ccc(NC(=O)Nc3ccc(Cl)c(C(F)(F)F)c3)cc2)ccn1 [Sorafenib] | 101 |
| Cc1nnc(C(C)C)n1C1C[C@H]2CC[C@@H](C1)N2CC[C@H](NC(=O)C1CCC(F)(F)CC1)c1ccccc1 (stereo in doubt) [Maraviroc] | 88 |
| O=C(O)c1ccc(O)c2ncccc12 | 106 |
| CCCCCCCCCCCCCCCCCCOP(=O)([O-])OC1CC[N+](C)(C)CC1 [Perifosine (KRX-0401)] | 96.7 |
| COc1cc(-c2cc(-c3ccc(N4CCNCC4)cc3)cnc2C)cc(OC)c1OC | 104 |
| NC(=O)Nc1cc(-c2cccc(F)c2)sc1C(=O)N[C@H]1CCCNC1 | 83 |
| c1ccc(Cn2c(-c3ccc(OC[C@H](C4CCNCC4)n4c(-c5ccccc5)nc5ccccc54)cc3)nc3ccccc32)cc1 [Deltarasin] | 103 |
| CN(CCOc1ccc(CC2SC(=O)NC2=O)cc1)c1ccccn1 (stereo not drawn) [Rosiglitazone] | 94 |
| CC(C)(C)c1cc(NC(=O)Nc2ccc(-c3cn4c(n3)sc3cc(OCCN5CCOCC5)ccc34)cc2)no1 [Quizartinib (AC220)] | 101 |
| O=C(NOCC1CC1)c1ccc(F)c(F)c1Nc1ccc(I)cc1Cl | 96.2 |
